Measured MFI accompanies every entry in the list below.
Molecular target: human DLL3 protein expressed on CHO-K1 recombinant cells (human DLL3 extracellular segment fused to EpCAM transmembrane and intracellular regions) (human) (UniProt Q9NYJ7)
Sequence (Q9NYJ7 other isoform, or with tags, fused parts or gaps limits assumed): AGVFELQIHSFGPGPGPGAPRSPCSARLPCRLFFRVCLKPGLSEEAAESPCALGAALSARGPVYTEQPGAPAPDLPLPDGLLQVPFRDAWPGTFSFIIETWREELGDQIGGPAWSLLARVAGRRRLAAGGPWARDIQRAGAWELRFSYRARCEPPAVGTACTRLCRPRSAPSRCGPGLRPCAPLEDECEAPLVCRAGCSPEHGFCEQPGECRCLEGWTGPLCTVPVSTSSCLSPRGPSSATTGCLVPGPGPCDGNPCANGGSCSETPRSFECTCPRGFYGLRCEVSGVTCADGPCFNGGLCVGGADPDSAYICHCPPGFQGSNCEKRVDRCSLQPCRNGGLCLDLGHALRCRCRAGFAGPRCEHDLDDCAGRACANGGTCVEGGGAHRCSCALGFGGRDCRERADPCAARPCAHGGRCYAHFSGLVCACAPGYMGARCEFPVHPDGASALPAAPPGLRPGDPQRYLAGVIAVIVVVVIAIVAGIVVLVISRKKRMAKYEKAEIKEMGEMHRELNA
Experiment: FACS, CHO-K1 hDLL3 cells, 0.0064 nM antibody
// units = MFI; emit number, no label

As a guide, the following entries are already answered.
Hab015VL4VH6a-hFc (scFv, part only; not given: scFv linker and human IgG1 Fc, V domains shown, not shown: another chain or arm of the molecule; a dimerising Fc or GST; small tags and cut ends) VL: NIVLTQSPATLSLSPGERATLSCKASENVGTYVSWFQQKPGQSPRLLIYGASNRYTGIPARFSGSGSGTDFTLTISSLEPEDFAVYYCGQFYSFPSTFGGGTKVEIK VH: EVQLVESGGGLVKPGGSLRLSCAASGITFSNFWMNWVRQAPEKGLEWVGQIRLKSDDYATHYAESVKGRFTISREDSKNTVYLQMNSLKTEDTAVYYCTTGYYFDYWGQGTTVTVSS: 144
Hab015VL4VH5a-hFc (scFv, part only; not given: VL-VH linker and human IgG1 Fc, V domains shown, not shown: another chain or arm of the molecule; a dimerising Fc or GST; small tags and cut ends) VL: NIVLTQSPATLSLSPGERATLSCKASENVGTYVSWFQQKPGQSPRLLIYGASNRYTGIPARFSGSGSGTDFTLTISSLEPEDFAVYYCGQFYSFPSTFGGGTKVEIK VH: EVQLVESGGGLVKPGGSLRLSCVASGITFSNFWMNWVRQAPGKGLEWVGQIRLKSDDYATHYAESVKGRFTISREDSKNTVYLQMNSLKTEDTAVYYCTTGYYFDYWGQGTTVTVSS: 150

Any idea what its MFI is? The binder is Hab014VL3VH1-hFc (scFv, part only; not given: VL-VH linker and human IgG1 Fc, V domains shown, not shown: another chain or arm of the molecule; a dimerising Fc or GST; small tags and cut ends) VL: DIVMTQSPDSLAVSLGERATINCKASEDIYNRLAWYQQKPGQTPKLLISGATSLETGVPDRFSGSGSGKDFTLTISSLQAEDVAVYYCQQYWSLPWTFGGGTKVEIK VH: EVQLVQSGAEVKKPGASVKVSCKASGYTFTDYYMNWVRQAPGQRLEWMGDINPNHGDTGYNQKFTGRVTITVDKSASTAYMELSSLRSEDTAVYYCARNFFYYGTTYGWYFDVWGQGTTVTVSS
299
